B1: MIA2 (parent)
chain: DMVSNIELPTRIHEEVYFEPSSSK

# Variants of: B1
# procedureDetails: protein stability index of a GFP-peptide fusion (GPS, HEK-293T) (PSI 1-6); higher = more stable;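 further: lentivirally expressed fusions sorted by FACS into six bins by GFP to DsRed ratio, PSI derived from sequencing read proportions per bin multiplied by bin number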
# measurementSetup: c terminus: a fixed tail appended
quantityKind: protein stability index

// worked examples, protein stability index included
• DMVSNIELPTRTHEEVYFEPSSSK [I12T] = 3.98
• DMVANIELPTRIHEEVYFEPSSSK [S4A] = 3.97
• DMVSNIELPTRIHEESYFEPSSSK [V16S] = 4.02
• DMKSNIELPTRIHEEVYFEPSSSK [V3K] = 4.02

Task: Reported protein stability index, variant DMVSNIELPTRIHEEVYFEPSSHK [S23H] : ____
Output: 3.96

Task: Reported protein stability index, variant DMVYNIELPTRIHEEVYFEPSSSK [S4Y] : ____
Output: 4.01

Task: Reported protein stability index, variant PMVSNIELPTRIHEEVYFEPSSSK [D1P] : ____
Output: 4.09

Task: Reported protein stability index, variant DMVSNIELPTRIHEETYFEPSSSK [V16T] : ____
Output: 4.05

Task: Reported protein stability index, variant DMVSNIELPTREHEEVYFEPSSSK [I12E] : ____
Output: 4.33

Task: Reported protein stability index, variant DMVSFIELPTRIHEEVYFEPSSSK [N5F] : ____
Output: 3.95

Task: Reported protein stability index, variant DMVSNIELPTRIHEQVYFEPSSSK [E15Q] : ____
Output: 3.44

Task: Reported protein stability index, variant DMVSNIELPTRIHEEVYGEPSSSK [F18G] : ____
Output: 4.63

Task: Reported protein stability index, variant DMGSNIELPTRIHEEVYFEPSSSK [V3G] : ____
Output: 4.23

Task: Reported protein stability index, variant DMVSNIELPTRIHEAVYFEPSSSK [E15A] : ____
Output: 3.35

Task: Reported protein stability index, variant DMVSNIELPTRIHEEVYFTPSSSK [E19T] : ____
Output: 3.4

Task: Reported protein stability index, variant DMVSNIELPTRIHEEVYREPSSSK [F18R] : ____
Output: 4.28

Task: Reported protein stability index, variant DMVSNIELPTRIHEEMYFEPSSSK [V16M] : ____
Output: 3.46
